IC50 values for UniProtKB O75907, compiled from several publications.
Output T for records whose IC50 is lower than 30 nM, F for records at or above 30 nM.

Worked cases, answers included:
O=C(O)C[C@H]1CC[C@H](OC2CCN(c3ccc(-c4nc5cc(F)c(F)c(Br)c5[nH]4)cn3)CC2)CC1; T
Cc1cc(CC(=O)O)ccc1-c1ccc(-c2nc(C(N)=O)c(C)nc2C)cc1; T
O=C(Nc1ccc(N2CCN(C(=O)Nc3c(Cl)cccc3Cl)CC2)cc1)c1ccc(-c2cc[nH]n2)cc1; F
CC1CCC(c2ccc(C3=Nc4c(N)ncnc4OC3(C)C)cc2)CC1 (centres unmarked); F
O=C(CCCc1ccccc1)Nc1ccc(N2CCN(C(=O)C(O)c3ccc(Br)cc3)CC2)cc1 (centres unmarked); F

Challenge: Strictly below 30 nM in IC50? CC(C)N(NC(=O)c1cccc(F)c1)C(=O)/C=C/c1cn(C(=O)OC(C)(C)C)c2ccccc12
Response given: F

Challenge: // same read-out, input: COC(=O)C(C)(C)COC1CCN(c2ccc(-c3nc4ccccc4[nH]3)cn2)CC1
Response given: T

====

Literature compilation of log10 of IC50 measurements on human DGAT1 (Homo sapiens, UniProt O75907).
Sequence (O75907 whole entry): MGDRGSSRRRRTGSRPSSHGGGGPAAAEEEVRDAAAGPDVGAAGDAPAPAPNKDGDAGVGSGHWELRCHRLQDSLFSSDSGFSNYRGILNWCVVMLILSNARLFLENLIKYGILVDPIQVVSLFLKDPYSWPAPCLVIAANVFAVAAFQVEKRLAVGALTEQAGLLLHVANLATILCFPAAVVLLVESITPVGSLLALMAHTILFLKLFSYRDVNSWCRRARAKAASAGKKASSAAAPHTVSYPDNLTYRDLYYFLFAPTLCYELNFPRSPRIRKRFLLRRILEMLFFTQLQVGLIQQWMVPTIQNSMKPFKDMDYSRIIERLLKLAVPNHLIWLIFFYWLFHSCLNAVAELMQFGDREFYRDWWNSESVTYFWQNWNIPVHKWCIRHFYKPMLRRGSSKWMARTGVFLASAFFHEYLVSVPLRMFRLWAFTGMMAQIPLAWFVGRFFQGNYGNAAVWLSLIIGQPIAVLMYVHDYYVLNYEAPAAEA
Would you kindly interpret these values as log10 of IC50 expressed in nM?

O=C(NCCNC(=O)c1sc2ccccc2c1Cl)c1ccc(O[C@H]2CC[C@@H](C(=O)O)CC2)cc1; 0.23
Cc1cc(C(=O)NCCCCc2ccccc2)c2ccc(-c3ccc([C@H]4CC[C@H](CC(=O)O)CC4)cc3)cc2n1; 1.18

Challenge: Please report the recorded log10 of IC50 for O=C(O)C[C@H]1CC[C@H](O[C@H]2CCN(c3ccc(-c4nc5cc(F)ccc5[nH]4)cn3)C2)CC1 .
Response given: 1.65

Challenge: Again, but for O=C(CC(=O)OCc1ccccc1)Nc1ccc(N2CCN(C(=O)Nc3c(Cl)cccc3Cl)CC2)cc1
Response given: 0.66

Challenge: Now consider CN(CC(=O)Nc1ccc(C2CCN(C(=O)Nc3c(Cl)cccc3Cl)CC2)cc1)C(=O)OC(C)(C)C and answer again.
Response given: 0.89

====

Please find below pIC50 measurements for human DGAT1 (Homo sapiens), combined from several publications.
The meaning of pIC50 here: minus log10 of the concentration in molar units.

These recorded examples may help you get a feel for the data.
O=C(CNCc1ccc(F)cc1)Nc1ccc(N2CCN(C(=O)Nc3c(Cl)cccc3Cl)CC2)cc1; 6.62
O=C(CCc1ccccc1)Nc1ccc(C2CCN(C(=O)Nc3c(Cl)cccc3Cl)CC2)cc1; 7.59
CCc1ccccc1NC(=O)N1CCN(c2ccc(NC(=O)c3ccccc3-c3ccc(C(F)(F)F)cc3)cc2)CC1; 5.67
O=C(O)c1cccc(OC2CCN(c3ccc(-c4nc5cc(Cl)ccc5[nH]4)cn3)CC2)c1; 8.70
Cc1nc(C)c(-c2ccc(-c3ccc(CC(=O)O)cc3F)c(F)c2)nc1C(N)=O; 7.74

Challenge: Which pIC50 is listed for CC(=O)c1cc(Cl)c(NC(=O)N2CCN(c3ccc(NC(=O)CCCc4ccccc4)cc3)CC2)c(Cl)c1 ?
Response given: 7.33

Challenge: Check Cc1ccc2[nH]c(-c3ccc(N4CCC(OCC(C)(C)C(=O)O)CC4)nc3)nc2n1 too.
Response given: 6.10

Challenge: Here is the next compound: COc1ccc(CNC(=O)c2ccc(N3CCN(C(=O)Nc4c(Cl)cncc4Cl)CC3)cc2)cc1
Response given: 6.84
